Test: Toxicity liver stage against HepG2, at 10uM
Format: cell-based
Design: test concentration 10 uM, cell line HepG2-A16-CD81EGFP
Settings: human, HepG2-A16-CD81EGFP cells; read-out: INHIBITION
readout name: cytotoxicity at 10 µM (%)

{"compound": "CC(=O)N1CCc2cc(Cl)cc(Cl)c2C1", "readout name": "cytotoxicity at 10 µM", "reported measurement": 11.2}
{"compound": "CCN1CC(c2ccccc2)CC2(CCN(Cc3ncc[nH]3)CC2)C1 (configuration not stated)", "readout name": "cytotoxicity at 10 µM", "reported measurement": 8.25}
{"compound": "Cc1nsc(N2CCN(CC(=O)NCc3ccc(F)cc3)CC2)n1", "readout name": "cytotoxicity at 10 µM", "reported measurement": -6.84}
{"compound": "O=C(NCCC1Cc2ccccc2C1)N1CCCC(O)C1 (configuration not stated)", "readout name": "cytotoxicity at 10 µM", "reported measurement": 22.2}
{"compound": "Cc1nccc(N2CCCC(C)(C(=O)NC3CCCC3)C2)n1 (configuration not stated)", "readout name": "cytotoxicity at 10 µM", "reported measurement": -18.6}
{"compound": "O=C(Cc1ccsc1)N1C[C@@H]2OCCN(CC3CC3)[C@@H]2C1", "readout name": "cytotoxicity at 10 µM", "reported measurement": 10.1}
{"compound": "Cc1nc(CN2CCCC(N(C)Cc3nnsc3Cl)C2)no1 (configuration not stated)", "readout name": "cytotoxicity at 10 µM", "reported measurement": -4.36}
{"compound": "Cc1cnn(CCNCc2ccc(OCc3cccnc3)cc2)c1", "readout name": "cytotoxicity at 10 µM", "reported measurement": -12.1}
{"compound": "Cc1noc(C)c1CCCNC(=O)Nc1ccc2c(c1)CC(=O)N2", "readout name": "cytotoxicity at 10 µM", "reported measurement": -16}
{"compound": "COCC1CN(S(=O)(=O)c2cccc(F)c2)Cc2nccn2C1 (configuration not stated)", "readout name": "cytotoxicity at 10 µM", "reported measurement": -103}
{"compound": "Cc1ccc(F)c(NC(=O)CCC(=O)N(C)Cc2nc(C)c[nH]2)c1", "readout name": "cytotoxicity at 10 µM", "reported measurement": 7.05}
{"compound": "O=C(c1ccncc1F)N1CCCC(c2nccn2CC2CCC2)C1 (configuration not stated)", "readout name": "cytotoxicity at 10 µM", "reported measurement": 5.94}
